# target system: Serine/threonine-protein kinase SIK3 (Homo sapiens, UniProt Q9Y2K2); note: in the data inactive means no Kd found up to 30 µM
# Sequence (Q9Y2K2 whole entry): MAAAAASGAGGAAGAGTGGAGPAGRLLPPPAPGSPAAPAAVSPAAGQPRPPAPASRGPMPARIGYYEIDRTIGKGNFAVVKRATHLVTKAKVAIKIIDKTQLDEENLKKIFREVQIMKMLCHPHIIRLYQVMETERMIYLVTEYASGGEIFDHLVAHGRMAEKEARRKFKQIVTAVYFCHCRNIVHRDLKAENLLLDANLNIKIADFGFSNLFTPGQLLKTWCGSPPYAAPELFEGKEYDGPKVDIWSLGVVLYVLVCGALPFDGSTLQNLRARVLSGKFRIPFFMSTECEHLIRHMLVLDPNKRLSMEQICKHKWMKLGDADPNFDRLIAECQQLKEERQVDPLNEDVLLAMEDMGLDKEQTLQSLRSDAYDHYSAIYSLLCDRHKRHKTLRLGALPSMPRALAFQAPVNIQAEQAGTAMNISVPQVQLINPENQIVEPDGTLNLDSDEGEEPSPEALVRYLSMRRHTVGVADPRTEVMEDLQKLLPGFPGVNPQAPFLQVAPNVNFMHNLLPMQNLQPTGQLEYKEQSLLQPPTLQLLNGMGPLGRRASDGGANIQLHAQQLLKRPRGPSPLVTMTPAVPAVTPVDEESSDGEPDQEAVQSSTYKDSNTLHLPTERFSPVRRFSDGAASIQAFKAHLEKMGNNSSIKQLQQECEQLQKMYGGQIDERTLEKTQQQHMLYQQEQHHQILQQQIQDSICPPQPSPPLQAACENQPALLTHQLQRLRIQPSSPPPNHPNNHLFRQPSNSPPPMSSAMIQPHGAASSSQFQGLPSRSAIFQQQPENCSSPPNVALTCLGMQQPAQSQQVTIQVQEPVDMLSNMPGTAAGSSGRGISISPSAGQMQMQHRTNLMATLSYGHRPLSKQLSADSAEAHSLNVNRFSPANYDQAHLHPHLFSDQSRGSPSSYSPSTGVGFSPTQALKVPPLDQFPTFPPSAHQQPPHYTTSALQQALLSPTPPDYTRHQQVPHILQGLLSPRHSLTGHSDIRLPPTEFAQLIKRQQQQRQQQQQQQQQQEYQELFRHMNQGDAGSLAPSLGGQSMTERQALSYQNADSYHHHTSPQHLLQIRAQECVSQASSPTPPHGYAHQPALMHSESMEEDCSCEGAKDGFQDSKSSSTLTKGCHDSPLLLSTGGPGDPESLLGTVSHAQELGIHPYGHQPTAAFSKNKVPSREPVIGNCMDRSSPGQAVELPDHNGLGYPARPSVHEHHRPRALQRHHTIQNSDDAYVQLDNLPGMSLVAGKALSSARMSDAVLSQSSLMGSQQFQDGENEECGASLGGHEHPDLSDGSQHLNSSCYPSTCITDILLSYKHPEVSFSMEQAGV
Structures can show the parent of a compound that is named as a salt. Calls of active or inactive are those of the source.
Outcome codes: active, inactive

1) CCS(=O)(=O)N1CCN(c2ccc(Nc3ncc(C(N)=O)c(NC4CC4)n3)cc2)CC1 [Cerdulatinib Hydrochloride]	active
2) CNC(=O)c1nn(C)c2c1C(C)(C)Cc1cnc(Nc3ccc(N4CCN(C)CC4)cc3)nc1-2	active
3) C[C@@H](NC(=O)c1ncnc(N)c1Cl)c1ncc(C(=O)Nc2cc(C(F)(F)F)c(Cl)cn2)s1	inactive
4) CO[C@H]1C[C@@H]2CC[C@@H](C)[C@@](O)(O2)C(=O)C(=O)N2CCCC[C@H]2C(=O)O[C@H]([C@H](C)C[C@@H]2CC[C@@H](O)[C@H](OC)C2)CC(=O)[C@H](C)/C=C(\C)[C@@H](O)[C@@H](OC)C(=O)[C@H](C)C[C@H](C)/C=C/C=C/C=C/1C	inactive
5) Cn1cnc2c(F)c(Nc3ccc(Br)cc3F)c(C(=O)NOCCO)cc21	inactive
6) Cc1cc(Nc2ncnc3ccc(NC4=NC(C)(C)CO4)cc23)ccc1Oc1ccn2ncnc2c1	inactive

---

# target system: STE20-related kinase adapter protein alpha (Homo sapiens, UniProt Q7RTN6); note: in the data inactive means no Kd found up to 30 µM
# Sequence (Q7RTN6 whole entry): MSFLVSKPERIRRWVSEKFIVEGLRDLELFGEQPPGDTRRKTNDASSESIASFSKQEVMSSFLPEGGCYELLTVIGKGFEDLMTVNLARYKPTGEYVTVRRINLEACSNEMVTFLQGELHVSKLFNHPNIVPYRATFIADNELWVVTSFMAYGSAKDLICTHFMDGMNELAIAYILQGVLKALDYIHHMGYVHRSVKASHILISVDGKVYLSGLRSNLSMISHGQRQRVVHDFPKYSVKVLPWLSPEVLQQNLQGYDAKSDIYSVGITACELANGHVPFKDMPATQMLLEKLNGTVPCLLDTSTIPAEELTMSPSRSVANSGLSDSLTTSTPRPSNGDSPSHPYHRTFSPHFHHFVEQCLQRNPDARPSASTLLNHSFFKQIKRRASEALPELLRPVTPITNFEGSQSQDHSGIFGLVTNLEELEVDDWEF
Calls of active or inactive are those of the source.
Listed here: items and their measured Kd.
property: Kd

1) CO[C@H]1C[C@@H]2CC[C@@H](C)[C@@](O)(O2)C(=O)C(=O)N2CCCC[C@H]2C(=O)O[C@H]([C@H](C)C[C@@H]2CC[C@@H](OC(=O)C(C)(CO)CO)[C@H](OC)C2)CC(=O)[C@H](C)/C=C(\C)[C@@H](O)[C@@H](OC)C(=O)[C@H](C)C[C@H](C)/C=C/C=C/C=C/1C [TEMSIROLIMUS]	> 30 µM (inactive)
2) CNC(=O)c1cccc2cc(Oc3ccnc4cc(OCC5(N)CC5)c(OC)cc34)ccc12 [LUCITANIB]	> 30 µM (inactive)
3) CO[C@H]1C[C@@H]2CC[C@@H](C)[C@@](O)(O2)C(=O)C(=O)N2CCCC[C@H]2C(=O)O[C@H]([C@H](C)C[C@@H]2CC[C@@H](O)[C@H](OC)C2)CC(=O)[C@H](C)/C=C(\C)[C@@H](O)[C@@H](OC)C(=O)[C@H](C)C[C@H](C)/C=C/C=C/C=C/1C [SIROLIMUS]	> 30 µM (inactive)

---

# target system: Cyclin-dependent kinase 6 (Homo sapiens, UniProt Q00534); note: in the data inactive means no Kd found up to 30 µM
# Sequence (Q00534 whole entry): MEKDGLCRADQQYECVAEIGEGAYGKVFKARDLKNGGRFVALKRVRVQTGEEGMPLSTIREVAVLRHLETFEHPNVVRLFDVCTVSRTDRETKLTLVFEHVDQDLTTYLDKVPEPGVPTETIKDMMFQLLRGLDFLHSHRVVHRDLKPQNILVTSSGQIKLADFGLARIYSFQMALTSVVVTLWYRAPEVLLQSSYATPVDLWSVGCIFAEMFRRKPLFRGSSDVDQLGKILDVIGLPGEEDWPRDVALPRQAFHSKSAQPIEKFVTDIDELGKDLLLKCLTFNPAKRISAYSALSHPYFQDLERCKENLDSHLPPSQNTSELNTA
Active and inactive are the calls of the source.
Classes used: yes = active, no = inactive

1) CNC(=O)c1cc(Oc2ccc(NC(=O)Nc3cc(C(C)(C)C)nn3-c3ccc4ncccc4c3)c(F)c2)ccn1 [REBASTINIB]	no
2) Cc1nc(Nc2n[nH]c3c2CN(C(=O)N[C@H](CN(C)C)c2ccccc2)C3(C)C)c2sccc2n1 [PF-03758309]	no
3) C#Cc1cccc(Nc2ncnc3cc(OC)c(OCCCCCCC(=O)NO)cc23)c1 [CUDC-101]	no
4) Cc1cc(Nc2ncc(Cl)c(Nc3ccccc3S(=O)(=O)C(C)C)n2)c(OC(C)C)cc1C1CCNCC1 [CERITINIB]	no
5) Cc1nc2cc(-c3nn(C(C)C)c4ncnc(N)c34)ccc2o1	no
6) CN1CCN(CCOc2cc(OC3CCOCC3)c3c(Nc4c(Cl)ccc5c4OCO5)ncnc3c2)CC1 [SARACATINIB]	no
7) CCCCCCCCCCCCCCCCCCOP(=O)([O-])OC1CC[N+](C)(C)CC1 [PERIFOSINE]	no
8) Cn1cc(-c2cnn3c(N)c(Br)c([C@@H]4CCCNC4)nc23)cn1 [SCH-900776]	no
9) CCOc1cc2ncc(C#N)c(Nc3ccc(F)c(Cl)c3)c2cc1NC(=O)/C=C/CN(C)C [PELITINIB]	no
10) O=C(Nc1cc(C(F)(F)F)cc(C(F)(F)F)c1)c1cc(Cl)ccc1O [IMD-0354]	no
11) N#CC1(c2ccc(NC(=O)c3cccnc3NCc3ccncc3)cc2)CCCC1 [RIVOCERANIB]	no
12) O=c1[nH]ccc2cc(OC3CCNCC3)ccc12 [SAR-407899 FREE BASE]	no
13) Cc1nc2cc(-n3ncc(C(=O)c4cc5ccccc5[nH]4)c3N)ccc2[nH]1 [FGFR INHIBITOR DEBIO 1347]	no
14) CNC(=O)c1cccc2cc(Oc3ccnc4cc(OCC5(N)CC5)c(OC)cc34)ccc12 [LUCITANIB]	no
15) Cc1nc(NC(=O)N2CCC[C@H]2C(N)=O)sc1-c1ccnc(C(C)(C)C(F)(F)F)c1 [ALPELISIB]	no
16) CNC(=O)c1nn(C)c2c1C(C)(C)Cc1cnc(Nc3ccc(N4CCN(C)CC4)cc3)nc1-2 [MILCICLIB]	yes

---

Activity calls are given as the source filed them.
Please consider the recorded Kd for Mitogen-activated protein kinase 10 (Homo sapiens) in what follows.
property: Kd

1) CNC(=O)c1cc(Oc2ccc(NC(=O)Nc3cc(C(C)(C)C)nn3-c3ccc4ncccc4c3)c(F)c2)ccn1	0.072 µM
2) CCOc1cc2ncc(C#N)c(Nc3ccc(F)c(Cl)c3)c2cc1NC(=O)/C=C/CN(C)C	> 30 µM (inactive)
3) CCCCCCCCCCCCCCCCCCOP(=O)([O-])OC1CC[N+](C)(C)CC1	> 30 µM (inactive)
4) NC1(c2ccc(-c3nc4ccn5c(=O)[nH]nc5c4cc3-c3ccccc3)cc2)CCC1	> 30 µM (inactive)

---

# target system: Tyrosine-protein kinase FRK (Homo sapiens, UniProt P42685); note: in the data inactive means no Kd found up to 30 µM
# Sequence (P42685 whole entry): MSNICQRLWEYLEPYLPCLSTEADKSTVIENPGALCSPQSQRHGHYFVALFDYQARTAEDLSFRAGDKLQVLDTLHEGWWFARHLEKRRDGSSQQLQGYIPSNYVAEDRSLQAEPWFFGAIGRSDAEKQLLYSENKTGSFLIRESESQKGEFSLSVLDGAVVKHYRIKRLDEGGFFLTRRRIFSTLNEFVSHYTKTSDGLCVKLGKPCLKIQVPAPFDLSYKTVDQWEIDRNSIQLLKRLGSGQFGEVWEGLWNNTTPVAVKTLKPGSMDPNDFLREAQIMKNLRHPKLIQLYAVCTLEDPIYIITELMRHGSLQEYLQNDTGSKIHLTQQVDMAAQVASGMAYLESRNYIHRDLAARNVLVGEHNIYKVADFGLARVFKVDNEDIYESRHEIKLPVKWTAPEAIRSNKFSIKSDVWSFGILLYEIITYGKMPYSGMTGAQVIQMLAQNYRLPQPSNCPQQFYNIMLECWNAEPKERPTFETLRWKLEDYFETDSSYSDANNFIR
Active and inactive are the calls of the source.
Possible outcomes: label 1 (active), label 0 (inactive)

1) CO[C@H]1C[C@@H]2CC[C@@H](C)[C@@](O)(O2)C(=O)C(=O)N2CCCC[C@H]2C(=O)O[C@H]([C@H](C)C[C@@H]2CC[C@@H](O)[C@H](OC)C2)CC(=O)[C@H](C)/C=C(\C)[C@@H](O)[C@@H](OC)C(=O)[C@H](C)C[C@H](C)/C=C/C=C/C=C/1C [SIROLIMUS]	label 0
2) CCOc1cc2ncc(C#N)c(Nc3ccc(F)c(Cl)c3)c2cc1NC(=O)/C=C/CN(C)C [PELITINIB]	label 0
3) C[C@@H](NC(=O)c1ncnc(N)c1Cl)c1ncc(C(=O)Nc2cc(C(F)(F)F)c(Cl)cn2)s1 [TOVORAFENIB]	label 1
4) CN(C[C@@H]1COCCO1)S(=O)(=O)Nc1ccc2ccc3ncc(-c4cnn(C)c4)cc3c(=O)c2c1 [MK-2461]	label 0
5) COc1c(OCCCN2CCOCC2)ccc2c1N=C(NC(=O)c1cnc(N)nc1)N1CCN=C21 [COPANLISIB]	label 0
6) CN1CCN(CCOc2cc(OC3CCOCC3)c3c(Nc4c(Cl)ccc5c4OCO5)ncnc3c2)CC1 [SARACATINIB]	label 1

---

Counter-ions that a name gives are not always drawn. The source made the active and inactive calls.
The molecules below have reported Kd for Mitogen-activated protein kinase kinase kinase kinase 2 (Homo sapiens).
property: Kd

1) CCOc1cc2ncc(C#N)c(Nc3ccc(F)c(Cl)c3)c2cc1NC(=O)/C=C/CN(C)C	2.28 µM (active)
2) Cc1nc(NC(=O)N2CCC[C@H]2C(N)=O)sc1-c1ccnc(C(C)(C)C(F)(F)F)c1	> 30 µM (inactive)
3) Cc1cnc(NC(=O)Nc2cc(Br)c(C)cc2OC[C@@H]2CNCCO2)cn1	> 30 µM (inactive)
4) O=c1[nH]ccc2cc(OC3CCNCC3)ccc12 [SAR-407899 FREE BASE]	> 30 µM (inactive)
5) Cc1csc(-c2nnc(Nc3ccc(Oc4ncccc4-c4ccnc(N)n4)cc3)c3ccccc23)c1	0.186 µM (active)
6) C[C@@H](Oc1cc(C(=O)Nc2ccc(C(=O)N3CCN(C)CC3)cc2)nnc1N)c1c(Cl)ccc(F)c1Cl	0.122 µM (active)
7) NC(=O)Nc1cc(-c2cccc(F)c2)sc1C(=O)N[C@H]1CCCNC1	0.05 µM (active)
8) COc1cc([C@@H]2c3cc4c(cc3[C@H](O)[C@H]3COC(=O)[C@@H]23)OCO4)cc(OC)c1OC	> 30 µM (inactive)
9) Nc1ncnc2c1c(-c1cccc(OCc3ccccc3)c1)cn2[C@H]1C[C@@H](CN2CCC2)C1	4.58 µM (active)
10) CN(C[C@@H]1COCCO1)S(=O)(=O)Nc1ccc2ccc3ncc(-c4cnn(C)c4)cc3c(=O)c2c1	> 30 µM (inactive)
11) C=CC(=O)N1CCC[C@H](n2c(=O)n(-c3ccc(Oc4ccccc4)cc3)c3c(N)ncnc32)C1	> 30 µM (inactive)
12) CCCCCCCCCCCCCCCCCCOP(=O)([O-])OC1CC[N+](C)(C)CC1	> 30 µM (inactive)
13) C[C@@H](NC(=O)c1ncnc(N)c1Cl)c1ncc(C(=O)Nc2cc(C(F)(F)F)c(Cl)cn2)s1	> 30 µM (inactive)
14) Cc1nc(Nc2n[nH]c3c2CN(C(=O)N[C@H](CN(C)C)c2ccccc2)C3(C)C)c2sccc2n1	> 30 µM (inactive)
15) Cc1cc(Nc2ncnc3ccc(NC4=NC(C)(C)CO4)cc23)ccc1Oc1ccn2ncnc2c1	> 30 µM (inactive)
16) Cc1nc2cc(-c3nn(C(C)C)c4ncnc(N)c34)ccc2o1	15.9 µM (active)
17) CN1CCN(CCOc2cc(OC3CCOCC3)c3c(Nc4c(Cl)ccc5c4OCO5)ncnc3c2)CC1	> 30 µM (inactive)
18) COc1c(OCCCN2CCOCC2)ccc2c1N=C(NC(=O)c1cnc(N)nc1)N1CCN=C21	> 30 µM (inactive)
19) Cc1cc(Nc2ncc(Cl)c(Nc3ccccc3S(=O)(=O)C(C)C)n2)c(OC(C)C)cc1C1CCNCC1	> 30 µM (inactive)
20) Cc1cc(C(=O)NOCCO)c(Nc2ccc(I)cc2F)n(C)c1=O	> 30 µM (inactive)
21) Cc1nc2cc(-n3ncc(C(=O)c4cc5ccccc5[nH]4)c3N)ccc2[nH]1	> 30 µM (inactive)
22) O=C(Cc1ccc(-c2ccc(OCCN3CCOCC3)cc2)cn1)NCc1ccccc1	> 30 µM (inactive)
23) CC(C)c1cc(CNc2nc(Nc3cc(C4CC4)[nH]n3)cc(N3CCN(C)CC3)n2)on1	0.352 µM (active)
24) CNC(=O)c1nn(C)c2c1C(C)(C)Cc1cnc(Nc3ccc(N4CCN(C)CC4)cc3)nc1-2	14 µM (active)
25) O=C(Nc1nc2cccc(-c3ccc(CN4CCS(=O)(=O)CC4)cc3)n2n1)C1CC1	> 30 µM (inactive)
26) O=C1NC(=O)[C@@H](c2cn3c4c(cccc24)CCC3)[C@@H]1c1c[nH]c2ccccc12 [TIVANTINIB]	> 30 µM (inactive)
27) CCS(=O)(=O)N1CCN(c2ccc(Nc3ncc(C(N)=O)c(NC4CC4)n3)cc2)CC1 [Cerdulatinib Hydrochloride]	> 30 µM (inactive)
28) CCNC(=O)C#Cc1ccc2c(c1)NC(=O)/C2=C(\Nc1ccc(CN(C)C)cc1)c1ccccc1	> 30 µM (inactive)
29) COc1cc2c(Nc3ccc(Cl)c(Cl)c3F)ncnc2cc1OC[C@@H]1C[C@@H]2CN(C)C[C@@H]2C1	> 30 µM (inactive)
30) FC(F)(F)c1ccc(/C=C/c2nc(COc3ccc(CCCCn4ccnn4)cc3)co2)cc1	> 30 µM (inactive)
31) COc1ncc(-c2ccc3nccc(-c4ccnnc4)c3c2)cc1NS(=O)(=O)c1ccc(F)cc1F	> 30 µM (inactive)
32) CN1C/C=C/CCOc2cccc(c2)-c2ccnc(n2)Nc2cccc(c2)C1	1.36 µM (active)
33) Cc1cccc(-c2nn3c(c2-c2ccnc4ccc(C(N)=O)cc24)CCC3)n1	> 30 µM (inactive)

Origin of the recorded values: ChEMBL document CHEMBL3991601
